assay: qHTS Screen for Compounds that Selectively Target Cancer Cells with p53 Mutations: Cytotoxicity of p53 Null Cells at the Permissive Temperature; settings: H1299-neo p53 null cells, ATP luminescence, 24 h, 32C; series mostly up to 46.1 µM; also: nearly all actives have a fitted effect of over 55% in size
Hit rate of the full screen: of about 55,000 compounds, about 340 (0.62%) were called active. About 3% were inconclusive and are not listed. Calls follow the shape of the dose curve; as a rule, active = well fitted cell-killing curve with a large enough effect; inconclusive = small, poorly fitted or top-dose-only effect; inactive = no such curve, though single readings can be large or run the other way. The sample holds actives, similar compounds and a random draw of the others, so the mix is not that of the screen.
Form entry, call: pick from active, inactive

Use these answered entries as a reference point.
Cc1cc(C)cc(OC(C)C(=O)Nc2nc3c(s2)CCCC3)c1 (stereo unspecified)    inactive
Clc1ccc(-n2nnnc2-c2cnc(-c3ccccn3)nc2-c2cccs2)cc1    inactive
Cc1ccccc1Nc1nn2c(=O)c3ccc(C(=O)NCCc4ccc(Cl)cc4)cc3nc2s1    inactive
CC1CCN(C(=O)Cn2c(=O)n(-c3ccc(Cl)cc3)c(=O)c3c4c(sc32)CCC4)CC1    inactive
Cc1cc(=O)n(CC(=O)Nc2cccc([N+](=O)[O-])c2)c(-n2nc(C)cc2C)n1    inactive
C/C(CC(=O)Nc1ccc(Cl)cc1)=N\NC(=O)C(=O)NCCO    inactive

Query block: Hey, what did the test say about c1ccc(-c2noc(-c3cccs3)n2)nc1 ?
Result block: active

Query block: Hello, I am checking results. What call was entered for CC1CCCN(Cc2c(O)ccc3c(=O)c(Oc4ccc(C(C)(C)C)cc4)c(C(F)(F)F)oc23)C1 (stereo unspecified) ?
Result block: inactive

Query block: Hey, what did the test say about Cc1cc(C)c2oc(-c3cccc(NC(=O)c4cccc(F)c4)c3C)nc2c1 ?
Result block: inactive

Query block: Which outcome did this test record for the compound Cc1cccc(OCc2ccc(C(=O)Nc3ccc(F)cc3)cc2)c1 ?
Result block: inactive

Query block: Could you please tell me the result logged for N#CC1(NC(=O)COc2ccc3oc4ccccc4c3c2)CCCCC1 in this assay?
Result block: inactive
